Recorded values, source patent US20210130436A1.

# measured.target: T1, CD28 (endogenously expressed on Jurkat/IL2 reporter cells) (human, UniProt P10747 19-220)
# T1 construct: Endogenous CD28 of Jurkat cells; also called human CD28
# assay.method.text: flow cytometry, Jurkat/IL2 reporter cells (endogenous CD28), PE anti-human Fc
measure.name: MFI at 33.3 nM (MFI)

INSERT INTO assay_data (binder, value_unit, measured_value) VALUES
  ('variant CD80 IgV-Fc Q27H/E35D/M47L/L85Q/R94Q/E95K (Fc fusion, not shown: a dimerising Fc or GST) VIHVTKEVKEVATLSCGHNVSVEELAHTRIYWQKDKKMVLTMMSGDLNIWPEYKNRTIFDITNNLSIVILALRPSDEGTYECVVQKYEKDAFKQKHLAEVTLSVKAD', 'MFI', 282),
  ('variant CD80 IgV-Fc E7D/E35D/M47I/L97Q (Fc fusion, not shown: a dimerising Fc or GST) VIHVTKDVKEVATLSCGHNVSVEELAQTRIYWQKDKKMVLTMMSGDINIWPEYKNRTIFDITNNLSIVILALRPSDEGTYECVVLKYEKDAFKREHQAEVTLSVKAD', 'MFI', 273),
  ('variant CD80 IgV-Fc Q33R/E35D/D46E/M47I (Fc fusion, not shown: a dimerising Fc or GST) VIHVTKEVKEVATLSCGHNVSVEELAQTRIYWRKDKKMVLTMMSGEINIWPEYKNRTIFDITNNLSIVILALRPSDEGTYECVVLKYEKDAFKREHLAEVTLSVKAD', 'MFI', 303),
  ('variant CD80 IgV-Fc Q27H/Q33L/E35D/M47V/N55D/L85Q/K89N (Fc fusion, not shown: a dimerising Fc or GST) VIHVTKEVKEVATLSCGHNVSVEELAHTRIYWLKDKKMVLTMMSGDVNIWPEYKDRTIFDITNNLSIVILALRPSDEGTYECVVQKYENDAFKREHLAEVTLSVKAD', 'MFI', 269),
  ('variant CD80 IgV-Fc V22A/E23D/Q33L/E35D/M47V (Fc fusion, not shown: a dimerising Fc or GST) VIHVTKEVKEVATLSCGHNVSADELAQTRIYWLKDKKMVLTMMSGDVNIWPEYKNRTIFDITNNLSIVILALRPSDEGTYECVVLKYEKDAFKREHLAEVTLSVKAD', 'MFI', 274),
  ('variant CD80 IgV-Fc Q33L/E35D/T41S/M47V (Fc fusion, not shown: a dimerising Fc or GST) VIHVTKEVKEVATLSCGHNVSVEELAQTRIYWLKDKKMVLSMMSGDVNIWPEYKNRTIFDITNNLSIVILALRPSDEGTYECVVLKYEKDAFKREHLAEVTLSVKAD', 'MFI', 287),
  ('variant CD80 IgV-Fc Q33R/E35D/K37E/M47V/L85Q (Fc fusion, not shown: a dimerising Fc or GST) VIHVTKEVKEVATLSCGHNVSVEELAQTRIYWRKDKEMVLTMMSGDVNIWPEYKNRTIFDITNNLSIVILALRPSDEGTYECVVQKYEKDAFKREHLAEVTLSVKAD', 'MFI', 258),
  ('variant CD80 IgV-Fc H18Y/Q33L/E35D/M47I (Fc fusion, not shown: a dimerising Fc or GST) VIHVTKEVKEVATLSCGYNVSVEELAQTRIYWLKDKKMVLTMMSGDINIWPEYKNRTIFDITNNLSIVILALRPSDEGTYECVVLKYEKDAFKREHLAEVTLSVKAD', 'MFI', 295),
  ('variant CD80 IgV-Fc A26E/Q33L/E35D/M47L/L85Q (Fc fusion, not shown: a dimerising Fc or GST) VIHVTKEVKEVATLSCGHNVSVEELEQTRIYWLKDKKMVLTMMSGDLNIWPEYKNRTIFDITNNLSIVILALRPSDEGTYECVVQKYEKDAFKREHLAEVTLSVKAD', 'MFI', 274),
  ('variant CD80 IgV-Fc A26E/E35D/M43I/M47L/L85Q/K86E/R94W (Fc fusion, not shown: a dimerising Fc or GST) VIHVTKEVKEVATLSCGHNVSVEELEQTRIYWQKDKKMVLTMISGDLNIWPEYKNRTIFDITNNLSIVILALRPSDEGTYECVVQEYEKDAFKWEHLAEVTLSVKAD', 'MFI', 314),
  ('variant CD80 IgV-Fc H18Y/V20A/Q33L/E35D/M47V/Y53F (Fc fusion, not shown: a dimerising Fc or GST) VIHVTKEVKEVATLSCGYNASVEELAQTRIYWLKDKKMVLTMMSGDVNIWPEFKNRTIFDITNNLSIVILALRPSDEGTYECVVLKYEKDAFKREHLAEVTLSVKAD', 'MFI', 260);
